Hi there, I'd appreciate the recorded inhibition at 10 µM for every entry that follows.
- measured-target: CYP2D6 (Homo sapiens, UniProt P10635)
- Sequence (P10635 whole entry): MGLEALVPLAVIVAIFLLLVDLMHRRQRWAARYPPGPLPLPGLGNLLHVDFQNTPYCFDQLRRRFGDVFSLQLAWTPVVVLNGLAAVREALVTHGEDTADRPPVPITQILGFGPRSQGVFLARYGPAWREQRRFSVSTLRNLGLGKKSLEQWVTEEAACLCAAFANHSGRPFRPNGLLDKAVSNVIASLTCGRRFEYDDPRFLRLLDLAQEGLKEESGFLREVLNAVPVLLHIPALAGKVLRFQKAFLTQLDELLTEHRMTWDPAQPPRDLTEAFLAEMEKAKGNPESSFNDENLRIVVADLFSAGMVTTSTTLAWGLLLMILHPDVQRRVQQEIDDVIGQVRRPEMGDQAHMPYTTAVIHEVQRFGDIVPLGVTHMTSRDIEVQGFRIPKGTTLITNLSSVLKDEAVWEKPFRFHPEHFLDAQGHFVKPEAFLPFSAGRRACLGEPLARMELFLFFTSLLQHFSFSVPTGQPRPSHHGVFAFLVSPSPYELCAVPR
- method-summary: in vitro
- Description: Inhibition of CYP2D6 at 10 uM
Please respond with the number in % and leave the unit unwritten.

Item "O=C(N[C@@H]1CC[C@@]2(O)[C@H]3Cc4ccc(O)c5c4[C@@]2(CCN3CC2CC2)[C@H]1O5)c1ccc(Cl)cc1" has what recorded inhibition at 10 µM? 4.7

And the next one, "COc1cccc(C(=O)N[C@@H]2CC[C@@]3(O)[C@H]4Cc5ccc(O)c6c5[C@@]3(CCN4CC3CC3)[C@H]2O6)c1" ? 31.2

And the next one, CN(C)c1cccc(C(=O)NC2CC[C@@]3(O)[C@H]4Cc5ccc(O)c6c5[C@@]3(CCN4CC3CC3)[C@H]2O6)c1 (stereo partly drawn) ? 23.5

----------
Hi there, I'd appreciate the recorded Ki for every entry that follows.
- measured-target: Delta-type opioid receptor (Homo sapiens)
- Sequence (P41143 whole entry): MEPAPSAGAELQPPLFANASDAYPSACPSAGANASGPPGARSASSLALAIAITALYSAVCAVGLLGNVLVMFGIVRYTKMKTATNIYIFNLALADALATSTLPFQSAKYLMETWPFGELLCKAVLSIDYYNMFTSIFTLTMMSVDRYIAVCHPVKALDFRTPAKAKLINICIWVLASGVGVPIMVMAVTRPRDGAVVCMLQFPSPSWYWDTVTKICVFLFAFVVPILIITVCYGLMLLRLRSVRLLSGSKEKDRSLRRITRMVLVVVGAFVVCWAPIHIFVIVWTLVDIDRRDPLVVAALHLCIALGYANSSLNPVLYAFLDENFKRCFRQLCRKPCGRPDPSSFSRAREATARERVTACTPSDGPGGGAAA
- method-summary: biochemical
- Description: Displacement of [3H]DPDPE from human delta opioid receptor expressed in CHO cells
Please respond with the number in nM and leave the unit unwritten.

Item "COc1ccc(CC(=O)N[C@@H]2CC[C@@]3(O)[C@H]4Cc5ccc(O)c6c5[C@@]3(CCN4CC3CC3)[C@H]2O6)cc1" has what recorded Ki? 19.9

And the next one, "O=C(C[C@@H]1O[C@H](COCc2ccccc2)[C@@H](OCc2ccccc2)[C@H](OCc2ccccc2)[C@H]1OCc1ccccc1)N[C@H]1CC[C@@]2(O)[C@H]3Cc4ccc(O)c5c4[C@@]2(CCN3CC2CC2)[C@H]1O5" ? 24.5

And the next one, "O=C(C[C@@H]1O[C@H](CO)[C@@H](O)[C@H](O)[C@H]1O)N[C@H]1CC[C@@]2(O)[C@H]3Cc4ccc(O)c5c4[C@@]2(CCN3CC2CC2)[C@H]1O5" ? 36.9

And the next one, "COc1cccc(CC(=O)N[C@@H]2CC[C@@]3(O)[C@H]4Cc5ccc(O)c6c5[C@@]3(CCN4CC3CC3)[C@H]2O6)c1" ? 15.8

And the next one, CN(C)c1cccc(C(=O)NC2CC[C@@]3(O)[C@H]4Cc5ccc(O)c6c5[C@@]3(CCN4CC3CC3)[C@H]2O6)c1 (stereo partly drawn) ? 8.5

And the next one, "COc1cc(OC)cc(C(=O)N[C@H]2CC[C@@]3(O)[C@H]4Cc5ccc(O)c6c5[C@@]3(CCN4CC3CC3)[C@H]2O6)c1" ? 6.83

And the next one, "O=C(N[C@@H]1CC[C@@]2(O)[C@H]3Cc4ccc(O)c5c4[C@@]2(CCN3CC2CC2)[C@H]1O5)c1ccccn1" ? 56.3

And the next one, "O=C(O)c1ccc(C(=O)N[C@@H]2CC[C@@]3(O)[C@H]4Cc5ccc(O)c6c5[C@@]3(CCN4CC3CC3)[C@H]2O6)cc1" ? 79.2

And the next one, "O=C(/C=C/Cc1ccccc1)N[C@@H]1CC[C@@]2(O)[C@H]3Cc4ccc(O)c5c4[C@@]2(CCN3CC2CC2)[C@H]1O5" ? 8.22

And the next one, "COc1cc(OC)cc(C(=O)N[C@@H]2CC[C@@]3(O)[C@H]4Cc5ccc(O)c6c5[C@@]3(CCN4CC3CC3)[C@H]2O6)c1" ? 17.6

And the next one, "O=C(Cc1cccs1)N[C@@H]1CC[C@@]2(O)[C@H]3Cc4ccc(O)c5c4[C@@]2(CCN3CC2CC2)[C@H]1O5" ? 32.4

And the next one, "COC(=O)c1ccc(C(=O)N[C@@H]2CC[C@@]3(O)[C@H]4Cc5ccc(O)c6c5[C@@]3(CCN4CC3CC3)[C@H]2O6)cc1" ? 27.2

And the next one, "O=C(N[C@@H]1CC[C@@]2(O)[C@H]3Cc4ccc(O)c5c4[C@@]2(CCN3CC2CC2)[C@H]1O5)c1cccc(O)c1" ? 2.73

----------
Values of Ke reported for Mu-type opioid receptor (Homo sapiens) appear below.
Please respond with the number in nM and leave the unit unwritten.

// fetch Mu-type opioid receptor (Homo sapiens) Ke for "COc1cccc(C(=O)N[C@@H]2CC[C@@]3(O)[C@H]4Cc5ccc(O)c6c5[C@@]3(CCN4CC3CC3)[C@H]2O6)c1" 0.17

And the next one, CN(C)c1cccc(C(=O)NC2CC[C@@]3(O)[C@H]4Cc5ccc(O)c6c5[C@@]3(CCN4CC3CC3)[C@H]2O6)c1 (stereo partly specified) ? 0.14

And the next one, "O=C(C[C@@H]1O[C@H](CO)[C@@H](O)[C@H](O)[C@H]1O)N[C@@H]1CC[C@@]2(O)[C@H]3Cc4ccc(O)c5c4[C@@]2(CCN3CC2CC2)[C@H]1O5" ? 0.37

And the next one, "O=C(C[C@@H]1O[C@H](COCc2ccccc2)[C@@H](OCc2ccccc2)[C@H](OCc2ccccc2)[C@H]1OCc1ccccc1)N[C@H]1CC[C@@]2(O)[C@H]3Cc4ccc(O)c5c4[C@@]2(CCN3CC2CC2)[C@H]1O5" ? 0.16

And the next one, "O=C(CCc1ccccc1)N[C@@H]1CC[C@@]2(O)[C@H]3Cc4ccc(O)c5c4[C@@]2(CCN3CC2CC2)[C@H]1O5" ? 0.15

And the next one, "O=C(Cc1cccs1)N[C@@H]1CC[C@@]2(O)[C@H]3Cc4ccc(O)c5c4[C@@]2(CCN3CC2CC2)[C@H]1O5" ? 0.41

----------
- measured-target: CYP2B6 (Homo sapiens, UniProt P20813)
- Sequence (P20813 whole entry): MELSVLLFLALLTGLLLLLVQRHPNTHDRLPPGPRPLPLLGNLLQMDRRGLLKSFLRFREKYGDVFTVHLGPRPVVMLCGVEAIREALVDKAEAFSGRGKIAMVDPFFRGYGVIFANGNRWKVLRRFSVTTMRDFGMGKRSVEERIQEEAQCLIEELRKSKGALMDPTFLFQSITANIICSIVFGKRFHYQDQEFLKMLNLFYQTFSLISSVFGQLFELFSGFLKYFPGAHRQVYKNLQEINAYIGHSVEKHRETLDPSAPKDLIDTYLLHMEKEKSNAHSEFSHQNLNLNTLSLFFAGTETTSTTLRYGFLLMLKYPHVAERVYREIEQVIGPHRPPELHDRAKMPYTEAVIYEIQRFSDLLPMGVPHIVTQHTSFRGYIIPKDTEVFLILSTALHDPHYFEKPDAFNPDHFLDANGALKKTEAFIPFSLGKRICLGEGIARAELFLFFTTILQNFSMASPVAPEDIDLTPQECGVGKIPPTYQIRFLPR
- method-summary: Inhibition of CYP2B6 at 10 uM
- Type: ADME
Hi there, I'd appreciate the recorded inhibition at 10 µM for every entry that follows.
Please respond with the number in % and leave the unit unwritten.

// fetch CYP2B6 (Homo sapiens, UniProt P20813) inhibition at 10 µM for "O=C(N[C@@H]1CC[C@@]2(O)[C@H]3Cc4ccc(O)c5c4[C@@]2(CCN3CC2CC2)[C@H]1O5)c1ccc(Cl)cc1" 7

And the next one, "COc1cccc(C(=O)N[C@@H]2CC[C@@]3(O)[C@H]4Cc5ccc(O)c6c5[C@@]3(CCN4CC3CC3)[C@H]2O6)c1" ? 49.3

----------
- measured-target: CYP2C9 (Homo sapiens)
- Sequence (P11712 whole entry): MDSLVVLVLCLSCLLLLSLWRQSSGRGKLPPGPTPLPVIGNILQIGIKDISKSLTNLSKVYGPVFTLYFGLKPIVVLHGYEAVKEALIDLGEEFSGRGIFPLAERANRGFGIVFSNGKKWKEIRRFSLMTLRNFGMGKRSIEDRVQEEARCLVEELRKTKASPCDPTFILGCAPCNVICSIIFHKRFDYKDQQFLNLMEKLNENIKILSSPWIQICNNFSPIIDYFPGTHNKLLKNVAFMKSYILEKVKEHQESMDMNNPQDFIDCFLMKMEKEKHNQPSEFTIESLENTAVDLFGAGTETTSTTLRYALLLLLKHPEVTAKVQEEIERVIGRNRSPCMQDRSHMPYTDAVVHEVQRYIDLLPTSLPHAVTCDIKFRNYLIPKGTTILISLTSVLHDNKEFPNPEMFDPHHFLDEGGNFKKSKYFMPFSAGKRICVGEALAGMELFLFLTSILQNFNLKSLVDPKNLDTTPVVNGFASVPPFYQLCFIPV
- method-summary: Inhibition of CYP2C9 at 10 uM
- Assay type: ADME
observed-property: inhibition at 10 µM (%)
Please respond with the number in % and leave the unit unwritten.

Item "O=C(N[C@@H]1CC[C@@]2(O)[C@H]3Cc4ccc(O)c5c4[C@@]2(CCN3CC2CC2)[C@H]1O5)c1ccc(Cl)cc1" has what recorded inhibition at 10 µM? 28.1

And the next one, "C=C1CC[C@@]2(O)[C@H]3Cc4ccc(O)c5c4[C@@]2(CCN3CC2CC2)[C@H]1O5" ? 35.5

And the next one, "O=C(N[C@@H]1CC[C@@]2(O)[C@H]3Cc4ccc(O)c5c4[C@@]2(CCN3CC2CC2)[C@H]1O5)c1ccc(Cl)c(Cl)c1" ? 32.3

And the next one, CN(C)c1cccc(C(=O)NC2CC[C@@]3(O)[C@H]4Cc5ccc(O)c6c5[C@@]3(CCN4CC3CC3)[C@H]2O6)c1 (some centres undefined) ? 23.1

----------
Hi there, I'd appreciate the recorded Ratio Ki for every entry that follows.
- Organism: Homo sapiens
- method-summary: Selectivity ratio of Ki for human mu opioid receptor over Ki for human delta opioid receptor
// keep it numeric: no unit symbol after the value

Item "O=C(O)c1ccc(C(=O)N[C@@H]2CC[C@@]3(O)[C@H]4Cc5ccc(O)c6c5[C@@]3(CCN4CC3CC3)[C@H]2O6)cc1" has what recorded Ratio Ki? 7860

And the next one, "COc1cccc(C(=O)N[C@H]2CC[C@@]3(O)[C@H]4Cc5ccc(O)c6c5[C@@]3(CCN4CC3CC3)[C@H]2O6)c1" ? 36

And the next one, "CC(C)(C)OC(=O)Nc1ccc(C(=O)N[C@@H]2CC[C@@]3(O)[C@H]4Cc5ccc(O)c6c5[C@@]3(CCN4CC3CC3)[C@H]2O6)cc1" ? 28

And the next one, "O=C(C[C@@H]1O[C@H](CO)[C@@H](O)[C@H](O)[C@H]1O)N[C@H]1CC[C@@]2(O)[C@H]3Cc4ccc(O)c5c4[C@@]2(CCN3CC2CC2)[C@H]1O5" ? 55

And the next one, "COc1cccc(C(=O)N[C@@H]2CC[C@@]3(O)[C@H]4Cc5ccc(O)c6c5[C@@]3(CCN4CC3CC3)[C@H]2O6)c1" ? 32

And the next one, "O=C(/C=C/Cc1ccccc1)N[C@@H]1CC[C@@]2(O)[C@H]3Cc4ccc(O)c5c4[C@@]2(CCN3CC2CC2)[C@H]1O5" ? 100

And the next one, "O=C(N[C@@H]1CC[C@@]2(O)[C@H]3Cc4ccc(O)c5c4[C@@]2(CCN3CC2CC2)[C@H]1O5)c1cccc(O)c1" ? 21

And the next one, "COc1cc(OC)cc(C(=O)N[C@@H]2CC[C@@]3(O)[C@H]4Cc5ccc(O)c6c5[C@@]3(CCN4CC3CC3)[C@H]2O6)c1" ? 68

And the next one, "COC(=O)c1ccc(C(=O)N[C@@H]2CC[C@@]3(O)[C@H]4Cc5ccc(O)c6c5[C@@]3(CCN4CC3CC3)[C@H]2O6)cc1" ? 130

And the next one, "O=C(Cc1cccs1)N[C@@H]1CC[C@@]2(O)[C@H]3Cc4ccc(O)c5c4[C@@]2(CCN3CC2CC2)[C@H]1O5" ? 75

And the next one, CN(C)c1cccc(C(=O)NC2CC[C@@]3(O)[C@H]4Cc5ccc(O)c6c5[C@@]3(CCN4CC3CC3)[C@H]2O6)c1 (stereo partly specified) ? 7.08

And the next one, "O=C(C[C@@H]1O[C@H](COCc2ccccc2)[C@@H](OCc2ccccc2)[C@H](OCc2ccccc2)[C@H]1OCc1ccccc1)N[C@H]1CC[C@@]2(O)[C@H]3Cc4ccc(O)c5c4[C@@]2(CCN3CC2CC2)[C@H]1O5" ? 16.5

And the next one, "COc1cc(OC)cc(C(=O)N[C@H]2CC[C@@]3(O)[C@H]4Cc5ccc(O)c6c5[C@@]3(CCN4CC3CC3)[C@H]2O6)c1" ? 36

And the next one, "O=C(Cc1ccccc1)N[C@@H]1CC[C@@]2(O)[C@H]3Cc4ccc(O)c5c4[C@@]2(CCN3CC2CC2)[C@H]1O5" ? 180

And the next one, "COc1ccc(CC(=O)N[C@@H]2CC[C@@]3(O)[C@H]4Cc5ccc(O)c6c5[C@@]3(CCN4CC3CC3)[C@H]2O6)cc1" ? 74

And the next one, "O=C(Cc1cccs1)N[C@H]1CC[C@@]2(O)[C@H]3Cc4ccc(O)c5c4[C@@]2(CCN3CC2CC2)[C@H]1O5" ? 5.5

And the next one, "Nc1ccc(C(=O)N[C@@H]2CC[C@@]3(O)[C@H]4Cc5ccc(O)c6c5[C@@]3(CCN4CC3CC3)[C@H]2O6)cc1" ? 85

And the next one, "COc1cccc(CC(=O)N[C@@H]2CC[C@@]3(O)[C@H]4Cc5ccc(O)c6c5[C@@]3(CCN4CC3CC3)[C@H]2O6)c1" ? 120

And the next one, "O=C(N[C@@H]1CC[C@@]2(O)[C@H]3Cc4ccc(O)c5c4[C@@]2(CCN3CC2CC2)[C@H]1O5)c1ccccn1" ? 180

And the next one, "O=C(C[C@@H]1O[C@H](CO)[C@@H](O)[C@H](O)[C@H]1O)N[C@@H]1CC[C@@]2(O)[C@H]3Cc4ccc(O)c5c4[C@@]2(CCN3CC2CC2)[C@H]1O5" ? 150

And the next one, "O=C(CCc1ccccc1)N[C@@H]1CC[C@@]2(O)[C@H]3Cc4ccc(O)c5c4[C@@]2(CCN3CC2CC2)[C@H]1O5" ? 100
